Target: Poly [ADP-ribose] polymerase 1 (Homo sapiens, UniProt P09874)
Sequence (P09874 whole entry): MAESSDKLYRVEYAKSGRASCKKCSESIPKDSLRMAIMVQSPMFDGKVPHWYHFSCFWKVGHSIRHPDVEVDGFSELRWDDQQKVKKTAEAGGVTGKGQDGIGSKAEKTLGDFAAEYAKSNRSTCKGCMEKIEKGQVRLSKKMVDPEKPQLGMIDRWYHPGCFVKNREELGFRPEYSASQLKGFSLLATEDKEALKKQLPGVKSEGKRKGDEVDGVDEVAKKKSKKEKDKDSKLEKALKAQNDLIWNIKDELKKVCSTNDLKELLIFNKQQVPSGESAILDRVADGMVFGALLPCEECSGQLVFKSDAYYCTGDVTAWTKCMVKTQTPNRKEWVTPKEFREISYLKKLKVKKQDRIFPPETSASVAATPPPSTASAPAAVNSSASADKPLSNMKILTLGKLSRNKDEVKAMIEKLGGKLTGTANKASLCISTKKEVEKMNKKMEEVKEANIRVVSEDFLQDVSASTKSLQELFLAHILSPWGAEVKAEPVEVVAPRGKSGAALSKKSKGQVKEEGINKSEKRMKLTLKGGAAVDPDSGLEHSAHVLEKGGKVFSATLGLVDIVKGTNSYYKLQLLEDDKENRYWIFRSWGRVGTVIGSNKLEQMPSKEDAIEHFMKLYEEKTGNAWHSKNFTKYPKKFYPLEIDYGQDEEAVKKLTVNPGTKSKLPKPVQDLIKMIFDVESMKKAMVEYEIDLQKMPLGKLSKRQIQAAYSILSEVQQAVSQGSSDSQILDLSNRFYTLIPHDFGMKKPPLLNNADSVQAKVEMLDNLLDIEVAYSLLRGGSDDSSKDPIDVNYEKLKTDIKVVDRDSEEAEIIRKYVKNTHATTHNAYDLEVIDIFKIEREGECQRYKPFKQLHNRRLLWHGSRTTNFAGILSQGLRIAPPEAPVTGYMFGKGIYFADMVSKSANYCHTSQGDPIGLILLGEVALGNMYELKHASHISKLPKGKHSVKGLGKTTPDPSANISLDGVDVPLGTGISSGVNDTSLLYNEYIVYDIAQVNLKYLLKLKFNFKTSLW
Experiment: Inhibition of PARP-1 (unknown origin) binding to DNA assessed as DNA trapping activity
So basically, if IC50 comes in under 5 nM it's class 1, and if it's 5 nM or more it's class 0.

In: Hi there! Is IC50 for CCc1cc2ncc(CN3CCC(Nc4ccc(C(=O)NC)nc4)CC3)cc2[nH]c1=O below 5 nM, do you know?
Out: class 0

In: Hi there! Is IC50 for CCc1cc2ncc(CN3CCc4nc(C(=O)NC)ccc4C3)cc2[nH]c1=O below 5 nM, do you know?
Out: class 0

In: Hi there! Is IC50 for CCc1cc2ncc(CN3CCN(c4ccc(OC(F)F)nc4)CC3)cc2[nH]c1=O below 5 nM, do you know?
Out: class 1

In: Hi there! Is IC50 for CCc1cc2ncc(CN3C[C@@H]4C[C@H]3CN4c3ccc(C(=O)NC)nc3)cc2[nH]c1=O below 5 nM, do you know?
Out: class 0

In: Hi there! Is IC50 for CCc1cc2ncc(CN3CC[C@@H](Nc4ccc(C(=O)NC)nc4)C3)cc2[nH]c1=O below 5 nM, do you know?
Out: class 1

In: Hi there! Is IC50 for CCc1cc2ncc(CN3CCc4cc(/C=C/C(=O)NC)ccc4C3)cc2[nH]c1=O below 5 nM, do you know?
Out: class 0

In: Hi there! Is IC50 for CCc1cc2ncc(CN3CC4(C3)CN(c3ccc(C(=O)NC)nc3)C4)cc2[nH]c1=O below 5 nM, do you know?
Out: class 1

In: Hi there! Is IC50 for CCc1cc2ncc(CN3CC4CCC(C3)N4c3ccc(C(=O)NC)nc3)cc2[nH]c1=O below 5 nM, do you know?
Out: class 0

In: Hi there! Is IC50 for CCc1cc2ncc(CN3CC(Nc4ccc(C(=O)NC)nc4)C3)cc2[nH]c1=O below 5 nM, do you know?
Out: class 1

In: Hi there! Is IC50 for CCc1cc2ncc(CN3CC[C@H](Nc4ccc(C(=O)NC)nc4)C3)cc2[nH]c1=O below 5 nM, do you know?
Out: class 0

In: Hi there! Is IC50 for CCc1cc2ncc(CN3CCN(c4ccc5oc(=O)[nH]c5c4)CC3)cc2[nH]c1=O below 5 nM, do you know?
Out: class 0

In: Hi there! Is IC50 for CCc1cc2ncc(CN3CCN(c4ccc(C(N)C(F)(F)F)nc4)CC3)cc2[nH]c1=O (configuration not stated) below 5 nM, do you know?
Out: class 0

In: Hi there! Is IC50 for CCc1cc2ncc(CN3CCN(c4ccc5cn[nH]c5n4)CC3)cc2[nH]c1=O below 5 nM, do you know?
Out: class 1

In: Hi there! Is IC50 for CCc1cc2ncc(CN3CCN(c4ccc5cc[nH]c5n4)CC3)cc2[nH]c1=O below 5 nM, do you know?
Out: class 0

In: Hi there! Is IC50 for CCc1cc2ncc(CN3CCN(c4ccc5nc(C(F)(F)F)[nH]c5n4)CC3)cc2[nH]c1=O below 5 nM, do you know?
Out: class 0

In: Hi there! Is IC50 for CCc1cc2ncc(CN3CC4CN(c5ccc(C(=O)NC)nc5)CC4C3)cc2[nH]c1=O (configuration not stated) below 5 nM, do you know?
Out: class 0

In: Hi there! Is IC50 for CCc1cc2ncc(CN3CCC(Nc4ccc(C(=O)NC)nc4)C3)cc2[nH]c1=O (configuration not stated) below 5 nM, do you know?
Out: class 1
